The origin of these recorded values is paper PMC7343282.

Contribution of Skin to the fish's body burden listing for selected molecules.
System: rainbow trout (Oncorhynchus mykiss)
Assay: Contribution of tissues to fish body burden
Format: in vivo
Conditions: fraction, Fish #3
Could you keep your reply to the number by itself?

Recorded Contribution of Skin to the fish's body burden, per entry:
{"columns": ["record smiles", "endpoint value"],
 "data": [
  ["CCCCCCCCCCCCN", 0.23],
  ["CCCCCCCCCCCCCCCCN", 0.10],
  ["CCCCCCCCCCCCCN", 0.20],
  ["CCCCCCCCCN", 0.16],
  ["CCCCCCCCCCCCCN(C)C", 0.22]
]}

// next entry
Looking up CCCCCCCCCN(C)C , I found its Contribution of Skin to the fish's body burden recorded as 0.17
